Listing: IC50 of selected molecules
target: Bcr/Abl fusion protein (Homo sapiens); assay: Inhibition of human recombinant full length His-tagged Bcr-Abl expressed in baculovirus expression system using tyrosine-2 peptide as substrate after 1 hr in presence of […] ATP by FRET based Z'-LYTE assay
Sequence (P00519 whole entry, the tested form may be a part): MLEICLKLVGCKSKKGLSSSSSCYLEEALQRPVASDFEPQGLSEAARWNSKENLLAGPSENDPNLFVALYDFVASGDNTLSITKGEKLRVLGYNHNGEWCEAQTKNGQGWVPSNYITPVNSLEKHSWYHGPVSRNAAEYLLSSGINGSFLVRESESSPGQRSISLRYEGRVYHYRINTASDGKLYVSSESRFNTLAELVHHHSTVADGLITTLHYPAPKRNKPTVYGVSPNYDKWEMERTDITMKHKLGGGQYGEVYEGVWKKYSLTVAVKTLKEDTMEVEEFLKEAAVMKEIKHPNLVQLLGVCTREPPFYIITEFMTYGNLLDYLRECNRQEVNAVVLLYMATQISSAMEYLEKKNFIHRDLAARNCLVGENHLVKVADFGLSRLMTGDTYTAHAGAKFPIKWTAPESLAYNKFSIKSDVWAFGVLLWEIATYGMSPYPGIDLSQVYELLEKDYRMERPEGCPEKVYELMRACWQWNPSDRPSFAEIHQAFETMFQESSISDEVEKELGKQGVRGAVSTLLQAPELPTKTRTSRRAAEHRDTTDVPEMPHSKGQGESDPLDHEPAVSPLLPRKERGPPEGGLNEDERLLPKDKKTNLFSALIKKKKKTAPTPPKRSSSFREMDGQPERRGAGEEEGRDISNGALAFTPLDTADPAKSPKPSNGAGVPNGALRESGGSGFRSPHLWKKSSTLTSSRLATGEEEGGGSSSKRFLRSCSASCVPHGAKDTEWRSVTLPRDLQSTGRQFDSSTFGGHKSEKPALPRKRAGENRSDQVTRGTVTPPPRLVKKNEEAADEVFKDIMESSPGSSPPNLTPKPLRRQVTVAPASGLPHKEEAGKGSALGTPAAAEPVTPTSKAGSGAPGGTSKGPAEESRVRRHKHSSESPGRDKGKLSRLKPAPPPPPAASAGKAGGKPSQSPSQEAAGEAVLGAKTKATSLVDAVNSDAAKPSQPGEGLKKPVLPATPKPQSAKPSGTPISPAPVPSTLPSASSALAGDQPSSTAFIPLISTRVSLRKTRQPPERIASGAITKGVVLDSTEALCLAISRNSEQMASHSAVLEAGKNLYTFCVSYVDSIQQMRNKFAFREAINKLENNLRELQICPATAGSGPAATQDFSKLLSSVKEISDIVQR
Sequence (P11274 whole entry, further chain, the tested form may be a part): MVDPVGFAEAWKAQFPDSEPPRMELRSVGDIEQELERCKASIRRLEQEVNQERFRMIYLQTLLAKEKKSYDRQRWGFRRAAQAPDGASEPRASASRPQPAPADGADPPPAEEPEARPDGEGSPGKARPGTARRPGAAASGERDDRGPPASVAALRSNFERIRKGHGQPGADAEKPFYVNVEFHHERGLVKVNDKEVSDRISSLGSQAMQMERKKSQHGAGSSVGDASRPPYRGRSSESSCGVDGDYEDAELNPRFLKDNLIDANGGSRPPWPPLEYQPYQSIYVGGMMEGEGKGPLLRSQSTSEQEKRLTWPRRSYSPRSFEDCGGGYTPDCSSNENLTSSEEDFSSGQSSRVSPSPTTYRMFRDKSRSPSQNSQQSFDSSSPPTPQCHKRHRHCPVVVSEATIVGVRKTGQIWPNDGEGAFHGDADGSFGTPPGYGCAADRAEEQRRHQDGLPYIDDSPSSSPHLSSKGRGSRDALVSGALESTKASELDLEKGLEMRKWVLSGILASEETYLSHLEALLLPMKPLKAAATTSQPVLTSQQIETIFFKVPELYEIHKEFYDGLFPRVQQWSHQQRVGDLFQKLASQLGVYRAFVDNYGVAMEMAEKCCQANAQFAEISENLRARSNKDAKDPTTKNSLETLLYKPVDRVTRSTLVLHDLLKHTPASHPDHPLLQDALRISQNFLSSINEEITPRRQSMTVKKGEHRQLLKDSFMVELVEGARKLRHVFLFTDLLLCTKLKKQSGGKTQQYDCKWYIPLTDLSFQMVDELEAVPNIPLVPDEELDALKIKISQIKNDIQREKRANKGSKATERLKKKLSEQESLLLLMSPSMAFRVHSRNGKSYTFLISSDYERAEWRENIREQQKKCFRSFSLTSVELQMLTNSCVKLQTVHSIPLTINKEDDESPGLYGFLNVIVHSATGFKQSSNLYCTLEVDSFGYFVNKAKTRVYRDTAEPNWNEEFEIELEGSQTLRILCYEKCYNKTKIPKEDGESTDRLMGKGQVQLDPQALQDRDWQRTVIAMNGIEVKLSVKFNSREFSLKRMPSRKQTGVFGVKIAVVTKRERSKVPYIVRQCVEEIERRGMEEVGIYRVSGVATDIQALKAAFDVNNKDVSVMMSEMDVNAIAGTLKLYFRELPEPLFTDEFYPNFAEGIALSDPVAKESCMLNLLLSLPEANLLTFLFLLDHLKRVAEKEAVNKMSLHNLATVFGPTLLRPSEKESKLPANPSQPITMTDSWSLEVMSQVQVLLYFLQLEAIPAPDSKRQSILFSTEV

Look over these answered cases.
# chemical.string, property, experimental.value
measured = [
    ("CCc1ccc(C(=O)Nc2cccc(C(F)(F)F)c2)cc1-c1cccc(-c2cnc3cnccn23)c1C", "IC50", "1810 nM"),
    ("CCc1ccc(C(=O)Nc2cc(CN3CCN(C)CC3)cc(C(F)(F)F)c2)cc1-c1cccc(-c2cnc3ccnn3c2)c1", "IC50", "> 10000 nM"),
    ("CCc1ccc(C(=O)Nc2ccccc2C(F)(F)F)cc1-c1cccc(-c2cnc3cnccn23)c1", "IC50", "> 10000 nM"),
    ("CCc1ccc(C(=O)Nc2cccc(C(F)(F)F)c2)cc1-c1cc(-c2cnc3cnccn23)cc(C(C)(C)C)c1", "IC50", "> 10000 nM"),
]

Quote Bcr/Abl fusion protein (Homo sapiens) IC50 for entry CCc1ccc(C(=O)Nc2cccc(C(F)(F)F)c2)cc1-c1cc(Cl)cc(-c2cnc3cnccn23)c1 .
> 10000 nM

Quote Bcr/Abl fusion protein (Homo sapiens) IC50 for entry CCc1ccc(C(=O)Nc2cccc(C(F)(F)F)c2F)cc1-c1cc(C)cc(-c2cnc3cnccn23)c1 .
> 10000 nM

Quote Bcr/Abl fusion protein (Homo sapiens) IC50 for entry CCc1ccc(C(=O)Nc2cccc(C(F)(F)F)c2)cc1-c1cc(-c2cnc3cnccn23)ccc1C .
1450 nM

Quote Bcr/Abl fusion protein (Homo sapiens) IC50 for entry CCc1ccc(C(=O)Nc2cc(CN3CCN(C)CC3)cc(C(F)(F)F)c2)cc1-c1cccc(-c2cnc3cnccn23)c1 .
437 nM

* * *

target: Mast/stem cell growth factor receptor Kit (Homo sapiens, UniProt P10721); experiment: Inhibition of human recombinant His-tagged c-Kit cytoplasmic domain (544 to 976 residues) expressed in baculovirus expression system using Ser/Thr 6 peptide as substrate after 1 hr in presence of 300 uM ATP by FRET based Z'-LYTE assay
Sequence (P10721 whole entry, the tested form may be a part): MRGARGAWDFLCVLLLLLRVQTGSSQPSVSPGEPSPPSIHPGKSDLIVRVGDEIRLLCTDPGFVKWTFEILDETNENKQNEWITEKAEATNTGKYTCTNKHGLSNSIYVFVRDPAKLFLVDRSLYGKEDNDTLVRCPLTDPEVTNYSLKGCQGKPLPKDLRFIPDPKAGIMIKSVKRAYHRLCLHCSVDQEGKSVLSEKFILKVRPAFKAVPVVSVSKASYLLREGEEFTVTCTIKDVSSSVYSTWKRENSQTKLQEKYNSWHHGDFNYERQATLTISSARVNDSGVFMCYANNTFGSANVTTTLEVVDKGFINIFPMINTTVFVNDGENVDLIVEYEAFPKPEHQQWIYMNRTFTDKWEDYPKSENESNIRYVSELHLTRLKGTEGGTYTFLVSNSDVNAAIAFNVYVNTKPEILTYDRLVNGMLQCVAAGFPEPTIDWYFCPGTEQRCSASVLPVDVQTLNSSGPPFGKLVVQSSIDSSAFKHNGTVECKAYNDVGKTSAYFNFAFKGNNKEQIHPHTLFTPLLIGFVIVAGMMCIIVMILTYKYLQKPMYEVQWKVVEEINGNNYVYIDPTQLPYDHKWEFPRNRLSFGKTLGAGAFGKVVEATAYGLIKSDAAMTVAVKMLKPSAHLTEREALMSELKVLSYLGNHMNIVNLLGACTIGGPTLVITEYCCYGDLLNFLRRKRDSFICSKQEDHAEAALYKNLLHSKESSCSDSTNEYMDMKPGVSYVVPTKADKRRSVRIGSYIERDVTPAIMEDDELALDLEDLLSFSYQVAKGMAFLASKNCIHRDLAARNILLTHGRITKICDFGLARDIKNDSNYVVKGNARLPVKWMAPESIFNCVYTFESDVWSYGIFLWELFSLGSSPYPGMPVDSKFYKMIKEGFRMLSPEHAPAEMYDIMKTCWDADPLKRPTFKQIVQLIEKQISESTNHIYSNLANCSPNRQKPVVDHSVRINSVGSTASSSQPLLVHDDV
Could you please classify the records by IC50 using these ranges: low end (below 4 µM), middle (4 µM to below 7 µM), high end (7 µM or more)

Field: example entries. Status: answers known.
# chemical.string, group.label
records = [
    ("Cc1ccc(C(=O)Nc2cccc(C(F)(F)F)c2)cc1-c1cccc(-c2cnc3cnccn23)c1", "low end"),
    ("CCc1ccc(C(=O)Nc2cccc(C(F)(F)F)c2)cc1-c1cc(OC)cc(-c2cnc3cnccn23)c1", "middle"),
    ("CCc1ccc(C(=O)Nc2cccc(C(F)(F)F)c2)cc1-c1cc(C#N)cc(-c2cnc3cnccn23)c1", "low end"),
    ("CCc1ccc(C(=O)Nc2cccc(C(F)(F)F)c2)cc1-c1cc(-c2cnc3cnccn23)ccc1C", "high end"),
    ("CCc1ccc(C(=O)Nc2cccc(C(F)(F)F)c2)cc1-c1cc(F)cc(-c2cnc3cnccn23)c1", "middle"),
]

Class? Entry: CCc1ccc(C(=O)Nc2cc(F)cc(C(F)(F)F)c2)cc1-c1cc(C)cc(-c2cnc3cnccn23)c1
high end

Class? Entry: CCc1ccc(C(=O)Nc2ccccc2)cc1-c1cccc(-c2cnc3cnccn23)c1
high end

Class? Entry: CCc1ccc(C(=O)Nc2cccc(C(F)(F)F)c2F)cc1-c1cc(C)cc(-c2cnc3cnccn23)c1
high end

Class? Entry: CCc1ccc(C(=O)Nc2cccc(CN3CCN(C)CC3)c2)cc1-c1cccc(-c2cnc3cnccn23)c1
middle

Class? Entry: CCc1ccc(C(=O)Nc2cc(CN3CCN(C)CC3)cc(C(F)(F)F)c2)cc1C#Cc1cnc2ccnn2c1
high end

Class? Entry: CCc1ccc(C(=O)Nc2cccc(C(F)(F)F)c2)cc1-c1cccc(-c2cnc3cnccn23)c1
low end

Just for reference, ChEMBL document CHEMBL4342493 is where these values come from.
